Kindly state pIC50 for each of the entries shown.
- target under test: CK1ε (Homo sapiens)
- Sequence (P49674 whole entry): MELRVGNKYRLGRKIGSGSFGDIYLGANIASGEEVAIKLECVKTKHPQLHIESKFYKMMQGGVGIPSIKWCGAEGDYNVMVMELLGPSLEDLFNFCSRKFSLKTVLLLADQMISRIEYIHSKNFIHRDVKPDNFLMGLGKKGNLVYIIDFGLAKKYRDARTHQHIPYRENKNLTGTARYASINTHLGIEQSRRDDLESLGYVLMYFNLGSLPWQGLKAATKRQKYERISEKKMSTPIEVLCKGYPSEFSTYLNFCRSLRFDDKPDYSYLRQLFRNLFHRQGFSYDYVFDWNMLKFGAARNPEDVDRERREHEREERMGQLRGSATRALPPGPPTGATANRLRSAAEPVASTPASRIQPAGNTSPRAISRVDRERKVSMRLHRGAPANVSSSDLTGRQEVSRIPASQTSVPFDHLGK
- measurement notes: CK1ε kinase assay (Caliper LabChip electrophoretic separation of fluoresceinated peptide substrate and product)
- Assay type: biochemical
- condition label: 200 pM CK1ε, 50 μM ATP, 1.5 μM peptide, 22 hours at room temperature; read-out: CK1ε IC50 range
pIC50: −log10 of the molar value.

Sample records with pIC50:
[ask] Bench note: what pIC50 did CC1CC(NC(=O)N2CCn3nc(-c4cccc(Cl)c4)c(C(N)=O)c3C2)C1 (single isomer, unassigned) [Compound 251] show?
[reply] 8.00 to 11.00

[ask] Bench note: what pIC50 did CC(C)(C)NC(=O)N1Cc2c(C(N)=O)c(-c3ccc(F)c(Cl)c3)nn2C(COC(F)F)C1 (centres unmarked) [Compound A22] show?
[reply] 8.00 to 11.00

[ask] Bench note: what pIC50 did CC(C)(C)NC(=O)N1Cc2c(C(N)=O)c(-c3ccc(F)c(Cl)c3)nn2C(C(C)(C)C)C1 (centres unmarked) [Compound A118] show?
[reply] 8.00 to 11.00

[ask] Bench note: what pIC50 did CC1Cn2nc(-c3ccc(F)c(Cl)c3)c(C(N)=O)c2CN1C(=O)NC1(C)CC(F)(F)C1 (single isomer, unassigned) [Compound 344] show?
[reply] 8.00 to 11.00

[ask] Bench note: what pIC50 did NC(=O)c1c(-c2cccc(F)c2)nn2c1CN(C(=O)NC13CCC(C(F)F)(CC1)CC3)CC2 show?
[reply] 8.00 to 11.00

[ask] Bench note: what pIC50 did NC(=O)c1c(-c2ccc(Cl)c(Cl)c2)nn2c1CN(C(=O)NC1CC(F)(F)C1)C[C@H]2CF show?
[reply] 8.00 to 11.00

[ask] Bench note: what pIC50 did COc1ccc([C@H]2C[C@@H](NC(=O)N3CCn4nc(-c5ccc(F)c(Cl)c5)c(C(N)=O)c4C3)C2)cc1 show?
[reply] 8.00 to 11.00

[ask] Bench note: what pIC50 did N#CC12C3C4C1C1C2C3C41NC(=O)N1CCn2nc(-c3cccc(Cl)c3)c(C(N)=O)c2C1 (centres unmarked) show?
[reply] 8.00 to 11.00

Batch request: pIC50 for each of the following compounds.
1. NC(=O)c1c(-c2cc(Cl)cc(Cl)c2)nn2c1CN(C(=O)NC1CC(F)(F)C1)CC2
2. COC12CCC(NC(=O)N3CCn4nc(-c5cccc(Cl)c5)c(C(N)=O)c4C3)(CC1)CC2
3. CC1Cn2nc(-c3ccc(F)c(Cl)c3)c(C(N)=O)c2CN1C(=O)NC(C)(C)C (single isomer, unassigned) [Compound 340]
4. CO[C@H]1C[C@@H](NC(=O)N2CCn3nc(-c4cccc(Cl)c4)c(C(N)=O)c3C2)C1
5. NC(=O)c1c(-c2cccc(F)c2)nn2c1CN(C(=O)Nc1c(F)cc(F)cc1F)CC2

[reply]
["8.00 to 11.00", "8.00 to 11.00", "7.00 to 8.00", "8.00 to 11.00", "5.70 to 7.00"]
